Entries annotated with measured pIC50
target: 72 kDa type IV collagenase (Homo sapiens); test: Inhibition of human recombinant MMP2
Sequence (P08253 whole entry): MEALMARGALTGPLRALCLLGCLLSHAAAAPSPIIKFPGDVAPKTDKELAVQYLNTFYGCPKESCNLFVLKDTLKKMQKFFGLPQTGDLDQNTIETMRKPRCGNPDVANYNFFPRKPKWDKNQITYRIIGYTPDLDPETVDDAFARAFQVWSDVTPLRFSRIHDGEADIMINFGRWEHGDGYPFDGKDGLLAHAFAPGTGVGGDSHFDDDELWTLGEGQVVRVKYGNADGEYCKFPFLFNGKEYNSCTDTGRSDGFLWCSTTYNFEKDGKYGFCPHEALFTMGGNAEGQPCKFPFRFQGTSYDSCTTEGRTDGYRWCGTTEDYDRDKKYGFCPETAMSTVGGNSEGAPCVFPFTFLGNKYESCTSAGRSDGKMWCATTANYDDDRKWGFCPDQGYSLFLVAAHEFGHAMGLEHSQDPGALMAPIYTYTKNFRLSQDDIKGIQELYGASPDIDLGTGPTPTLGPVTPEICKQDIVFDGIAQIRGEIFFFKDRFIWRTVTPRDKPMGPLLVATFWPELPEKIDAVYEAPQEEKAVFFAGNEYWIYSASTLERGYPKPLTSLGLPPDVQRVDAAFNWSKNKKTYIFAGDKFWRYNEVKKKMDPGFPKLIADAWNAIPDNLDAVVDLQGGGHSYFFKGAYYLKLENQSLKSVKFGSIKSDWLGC
pIC50: −log10 of the molar value.
Parameter measured: pIC50

[
  {
    "Substance smiles": "Nc1nc2ncc(CNc3ccc(C(=O)N[C@@H](CCC(=O)N[C@@H](Cc4ccccc4)C(=O)NO)C(=O)O)cc3)nc2c(=O)[nH]1",
    "Parameter measured": "pIC50",
    "Measurement": 4.19
  },
  {
    "Substance smiles": "CN(Cc1cnc2nc(N)nc(N)c2n1)c1ccc(C(=O)N[C@@H](CCC(=O)N[C@@H](Cc2ccccc2)C(=O)NO)C(=O)O)cc1",
    "Parameter measured": "pIC50",
    "Measurement": 4.22
  }
]
